Numbers sourced from patent US20020132782A1.

system: Streptococcus pneumoniae 5649; assay: In vitro assay of antibacterial activity (agar dilution MIC); type: cell-based; settings: organism code JJ, BHI agar, 35-37° C., 20 to 24 hours
Quick list: MIC per entry.
property.measured: MIC (µg/mL)

molecule="CCC1OC(=O)C(C)C(=O)C(C)C(OC2OC(C)CC(N(C)C)C2O)C(C)(OCC=Cc2cnc3ccccc3c2)CC(C)C(N)C(C)C(O)C1(C)O (stereo not shown)" tested_on="Streptococcus pneumoniae 5649" property_measured=MIC number=1
molecule="CCC1OC(=O)C(C)C(=O)C(C)C(OC2OC(C)CC(N(C)C)C2O)C(C)(OCC=Cc2cnc3ccccc3c2)CC(C)C(N)C(C)C2OC(=O)OC12C (stereo not shown)" tested_on="Streptococcus pneumoniae 5649" property_measured=MIC number=32
molecule="CCC1OC(=O)C(C)C(=O)C(C)C(OC2OC(C)CC(N(C)C)C2O)C(C)(OCC=Cc2cnc3ccccc3c2)CC(C)C2NC(=O)OC(C2C)C1(C)O (stereo not shown)" tested_on="Streptococcus pneumoniae 5649" property_measured=MIC number=2
molecule="CC[C@H]1OC(=O)[C@H](C)[C@@H](O[C@H]2C[C@@](C)(OC)[C@@H](O)[C@H](C)O2)[C@H](C)[C@@H](O[C@@H]2O[C@H](C)C[C@H](N(C)C)[C@H]2O)[C@](C)(O)C[C@@H](C)C(=O)[C@H](C)[C@@H](O)[C@]1(C)O [Ery. A, Erythromycin A, reference compound]" tested_on="Streptococcus pneumoniae 5649" property_measured=MIC number=16
